- experiment-description: HUVEC growth inhibition – cell-based, human, primary screen (AID 575);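 note: 100% = median of untreated cell wells with 0.1% DMSO on each plate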
- experimental-parameters: HUVEC proliferation, CellTiter-Glo luminescence, 72 h; at 10 µM; active compounds read low
viability values, listed per item
readout-kind: viability (%)

[[record]]
compound = "COC(=O)c1cc(NC(=O)C2CC=CCC2C(=O)O)cc(C(=O)OC)c1 (stereo not drawn)"
readout_kind = "viability"
result = 104

[[record]]
compound = "Cc1oc2c(CN3CCCC3)c(O)ccc2c(=O)c1-c1ccccc1"
readout_kind = "viability"
result = 80.1

[[record]]
compound = "CCOC(=O)N1CCN(c2c(N3CCN(c4ccccn4)CC3)c(=O)c2=O)CC1"
readout_kind = "viability"
result = 95.4

[[record]]
compound = "Cc1ccccc1C(=O)Nc1c(C(=O)N2CCCC2)cnn1-c1ccccc1"
readout_kind = "viability"
result = 106

[[record]]
compound = "O=C(CN1CCOCC1)N1CCN(C(=O)CN2CCOCC2)CC1"
readout_kind = "viability"
result = 93.7

[[record]]
compound = "O=C(Nc1ccc2c(c1)OCCO2)C1CCCN1S(=O)(=O)c1cccc2cccnc12 (stereo not drawn)"
readout_kind = "viability"
result = 100

[[record]]
compound = "O=C(c1ccc2c(c1)OCCO2)C1CCN(C(=O)c2ccc(F)cc2)CC1"
readout_kind = "viability"
result = 93.7

[[record]]
compound = "COc1ccc(-c2nnc(SCC(=O)c3cc(C)n(Cc4cccs4)c3C)o2)cc1"
readout_kind = "viability"
result = 90.9

[[record]]
compound = "CCCCCOC(=O)C1=C(C)N(C)C(=O)NC1c1cc(Br)c(O)c(OC)c1 (stereo not drawn)"
readout_kind = "viability"
result = 72.7

[[record]]
compound = "COc1ccccc1OCC(=O)Nc1cccc(-c2nc3ccccc3o2)c1"
readout_kind = "viability"
result = 52.8

[[record]]
compound = "COc1ccc(Cl)cc1Nc1nc(C)cc(=O)[nH]1"
readout_kind = "viability"
result = 80.6

[[record]]
compound = "Cc1cc(=O)n(-c2ccc3ccccc3n2)[nH]1"
readout_kind = "viability"
result = 53.6

[[record]]
compound = "O=C(CSc1ncnc2c1oc1ccccc12)Nc1ccccc1F"
readout_kind = "viability"
result = 72

[[record]]
compound = "NC(=O)C1CCN(CC(=O)N2c3ccccc3CCc3ccccc32)CC1"
readout_kind = "viability"
result = 103

[[record]]
compound = "O=C(Nc1cccnc1)c1ccc2c(c1)C(=O)N(Cc1cccnc1)C2=O"
readout_kind = "viability"
result = 103

[[record]]
compound = "Cc1ccccc1NC(=O)C1Cc2ccccc2C(=O)O1 (stereo not drawn)"
readout_kind = "viability"
result = 116

[[record]]
compound = "Nc1scc(-c2ccncc2)c1Cl"
readout_kind = "viability"
result = 83.5

[[record]]
compound = "CN(C)CCCN1C(=O)c2oc3ccccc3c(=O)c2C1c1cccs1 (stereo not drawn)"
readout_kind = "viability"
result = 99

[[record]]
compound = "CCOc1ccccc1CNC(=O)CCN1C(=O)COc2ccccc21"
readout_kind = "viability"
result = 88.8

[[record]]
compound = "C=CCn1c(-c2ccccc2)c[nH]c1=S"
readout_kind = "viability"
result = 114

[[record]]
compound = "COc1ccc2c(c1)C(C)=CC(C)(C)N2C(=O)C(C)N1C(=O)c2ccccc2C1=O (stereo not drawn)"
readout_kind = "viability"
result = 81.6

[[record]]
compound = "O=C(C(c1ccccc1)c1ccccc1)N1CCN(Cc2ccccn2)CC1"
readout_kind = "viability"
result = 84.7

[[record]]
compound = "CCN1CCN(c2nc3c(C)cccn3c(=O)c2/C=C(\\C#N)S(=O)(=O)c2ccccc2)CC1"
readout_kind = "viability"
result = 89.6

